The measurements presented in this section are drawn from patent US20120142771A1.

responders at 50 mg/kg by entry:
# System: maximum electroshock seizure (MES) model
# Assay Comment: Maximum electroshock seizure (MES) model test
# Type: in vivo, mice
# Cond: Mus musculus, po, 1 h, 50 mg/kg oral, Slc: ddY male mice, 3 per group, electrical stimulation 1 hour after administration; inhibition of hind limb extension; read-out: MES (positive number/tested number) (converted)
Express the result in % but write the number alone.

| Compound | responders at 50 mg/kg (%) |
| --- | --- |
| NC(=O)Cc1cc(F)ccc1-c1ccccc1 [Example 44, 2-(4-fluorobiphenyl-2-yl)acetamide] | 100 |
| NC(=O)C(O)c1ccccc1-c1ccccc1Cl (single isomer, unassigned) [Example 220] | 100 |
| CNC(=O)Cc1ccccc1-c1cccc(C(F)(F)F)c1F [Example 98] | 0 |
| CN(C)C(=O)Cc1ccccc1-c1ccccc1F [Example 30] | 0 |

-- ask Can you share its responders at 50 mg/kg? I mean this compound: CNC(=O)C(OC)c1ccccc1-c1ccc(F)cc1 (centres unmarked) [Example 204]
-- reply 0

-- ask Can you share its responders at 50 mg/kg? I mean this compound: NC(=O)Cc1ccccc1-c1cc(OC(F)(F)F)ccc1F [Example 93]
-- reply 100

-- ask Can you share its responders at 50 mg/kg? I mean this compound: NC(=O)C(O)c1ccccc1-c1cc(F)cc(Cl)c1 (centres unmarked) [Example 191]
-- reply 100

-- ask Can you share its responders at 50 mg/kg? I mean this compound: CNC(=O)Cc1ccccc1-c1ccc(Br)cc1 [Example 53]
-- reply 66.7

-- ask Can you share its responders at 50 mg/kg? I mean this compound: CNC(=O)Cc1ccccc1-c1cccc(F)c1 [Example 26]
-- reply 100

-- ask Can you share its responders at 50 mg/kg? I mean this compound: COC(C(=O)N(C)C)c1ccccc1-c1ccccc1 (centres unmarked) [Example 63]
-- reply 0

-- ask Can you share its responders at 50 mg/kg? I mean this compound: NC(=O)Cc1ccc(F)cc1-c1ccccc1F [Example 41, 2-(2′,5-difluorobiphenyl-2-yl)acetamide]
-- reply 100
